Where a name gives a salt, the structure may show the parent alone.
measurement-kind: melting point

input: Field request: melting point | item: CC(C)(F)[C@H]1COCc2nc3c(N)nc4cc(O)ccc4c3n21
output: 219 to 221 °C

input: Nc1nc2ccccc2c2c1nc1n2[C@H](Cc2ccccc2)COC1 (hydrate or solvate) ?
output: 170 to 177 °C

input: CC(C)(O)[C@H]1COCc2nc3c(N)nc4cccnc4c3n21 ?
output: 242 to 246 °C

input: C[C@H]1COCc2nc3c(N)nc4ccc(OCCN5CCOCC5)cc4c3n21 ?
output: 186 to 188 °C

input: Nc1nc2ccccc2c2c1nc1n2[C@@H](Cc2ccc(F)cc2)COC1 ?
output: 170 to 172 °C

input: COc1ccc(C[C@H]2COCc3nc4c(N)nc5ccccc5c4n32)cc1 ?
output: 115 to 130 °C

input: Nc1nc2ccccc2c2c1nc1n2[C@@H](Cc2ccc(O)cc2)COC1 (as salt: hydrochloride) ?
output: > 240 °C (dec.)

input: Cc1nc(COc2ccc3nc(N)c4nc5n(c4c3c2)[C@@H](C)COC5)cs1 ?
output: 105 to 107 °C

Values were extracted from patent US8546383B2.
